Values compiled from PubChem BioAssay (Tox21).

# experiment summary: qHTS assay to identify small molecule that activate the aryl hydrocarbon receptor (AhR) signaling pathway - cell viability counter screen (AID 743086);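 further: HepG2 liver cells carrying the AhR DRE luciferase reporter; nearly all actives have a fitted effect of over 45% in size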
# conditions: HepG2-AhR-luc viability, CellTiter-Fluor, 24 h; series mostly up to 70.3 µM
Records with an inconclusive call do not appear. The source made the active and inactive calls. The call rests on the fitted dose curve; in most records, active means well fitted cell-killing curve with a large enough effect in the repeat runs; inconclusive means weak or mixed curves, or effect the other way; inactive means flat fitted curve, though single readings scatter.
# valid calls are class 1 = active, class 0 = inactive; nothing else

Each molecule tested received a call. Report the one for C=C(C)C(=O)OCCCCCCCCCC .
class 0

Could you please tell me the result logged for CC(C)(C)NSc1nc2ccccc2s1 in this assay?
class 0

Hello, I am checking results. What call was entered for O=C(Oc1ccccc1)Oc1ccccc1 ?
class 0

Please let me know the test result on file for O=C1CCc2cc(OCCCCc3nnnn3C3CCCCC3)ccc2N1 .
class 0

# outcome recorded in this test, key = C#C[C@]1(OC(C)=O)CC[C@H]2[C@@H]3CCC4=C[C@@H](OC(C)=O)CC[C@@H]4[C@H]3CC[C@@]21C
class 0

***
Recorded call for Oc1c(I)cc(Cl)c2cccnc12 ?
class 0

Lab log entry: CCCC[P+](C)(CCCC)CCCC — outcome as called in the assay?
class 0

Any idea what this test logged for CC/C=C\CCCCCO ?
class 0

Could you kindly confirm the outcome this assay logged for OC1CCCc2ccccc21 (stereo not given) ?
class 0

For this molecule, state the assay outcome: CC(=O)[C@H]1CC[C@H]2[C@@H]3CCC4=CC(=O)CC[C@]4(C)[C@H]3CC[C@]12C
class 0

Give the logged outcome of this assay for the following molecule: O=C(/C=C/c1ccc(O)c(O)c1)O[C@@H](C(=O)O)[C@@H](OC(=O)/C=C/c1ccc(O)c(O)c1)C(=O)O
class 0

Could you check what this test reported for CCCCNS(=O)(=O)c1ccc(C)cc1 ?
class 0

# outcome recorded in this test, key = CC(C)(C)C1CCC(=O)CC1
class 0

Could you kindly confirm the outcome this assay logged for Cc1cc(-n2nc3ccc(Cl)cc3n2)c(O)c(C(C)(C)C)c1 ?
class 0

Look up the recorded call for O=C(O)c1ccc2cc(C(=O)O)ccc2c1 in this test.
class 0
